# Test system: Mycolicibacterium smegmatis
# method: Antimicrobial activity against Mycobacterium smegmatis at 300 ug/disc
# Format: functional
# details: read-out: IZ
# zone of inhibition at 300 µg/disc values compiled below

Solved entries:
compound | zone of inhibition at 300 µg/disc
Cc1cccc(/C=N/N=C2\SC(CC(=O)O)C(=O)N2c2ccccc2)c1 (stereo unspecified) | < 7 mm
COc1ccc(/C=N/N=C2\SC(CC(=O)O)C(=O)N2c2ccccc2)c(OC)c1 (stereo unspecified) | < 7 mm
O=C(O)CC1S/C(=N\N=C\c2ccccc2)N(c2ccccc2)C1=O (stereo unspecified) | 9 mm
COc1cc(/C=N/N=C2\SC(CC(=O)O)C(=O)N2c2ccccc2)cc(OC)c1OC (stereo unspecified) | < 7 mm
CC(C)(C)c1cc(/C=N/N=C2\SC(CC(=O)O)C(=O)N2c2ccccc2)cc(C(C)(C)C)c1O (stereo unspecified) | 26 mm

Here is another compound to look at.
Problem: Request body: readout zone of inhibition at 300 µg/disc, system Mycolicibacterium smegmatis, query O=C(O)CC1S/C(=N\N=C\c2cccc(Cl)c2)N(c2ccccc2)C1=O (stereo unspecified) . Return the value.
Solution: < 7 mm
